Molecular target: human prostanoid EP4 receptor (Homo sapiens)
Construct: expressed in transfected cells
Sequence (P35408 whole entry): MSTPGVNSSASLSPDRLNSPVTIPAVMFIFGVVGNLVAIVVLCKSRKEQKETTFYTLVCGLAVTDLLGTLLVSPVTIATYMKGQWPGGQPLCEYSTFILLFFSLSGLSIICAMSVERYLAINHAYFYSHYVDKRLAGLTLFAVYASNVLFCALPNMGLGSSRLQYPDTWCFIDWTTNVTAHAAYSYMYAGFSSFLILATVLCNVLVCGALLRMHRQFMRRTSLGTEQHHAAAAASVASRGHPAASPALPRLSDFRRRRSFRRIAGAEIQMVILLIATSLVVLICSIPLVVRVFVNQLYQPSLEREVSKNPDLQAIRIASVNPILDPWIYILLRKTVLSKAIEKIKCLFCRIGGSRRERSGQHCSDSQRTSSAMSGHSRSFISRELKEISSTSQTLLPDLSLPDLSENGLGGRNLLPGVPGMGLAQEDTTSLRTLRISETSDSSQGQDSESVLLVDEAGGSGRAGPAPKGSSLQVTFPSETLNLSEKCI
Experiment: FLIPR Ca2+ signaling antagonist assay, EP4 receptor stable cell line
Format: cell-based
Conditions: HEK-293 EBNA stable cell line; standard agonist PGE2; NA = inactive (no antagonism or Kb 10,000 nM); PAg, Ag not defined
measurement-type: log10 Kb (log10 of the value in nM)
Friendly reminder: values = log10 of Kb, unit nM.

Reference set (2 entries):
molecule	log10 Kb
CCC(CC)COc1ccc(C#N)cc1Cn1nc(CCC(=O)O)cc1C	3.38
Cc1cc(CCC(=O)O)nn1Cc1cc(Cl)ccc1CCC1CCCC1	3.52

Respond only with log10 Kb recorded for Cc1cc(CCC(=O)NS(=O)(=O)C(F)(F)F)nn1Cc1cc(Cl)ccc1CCC1CCCC1
3.00

Give the measured log10 Kb for CCC(C)(CC)COc1ccc(Br)cc1Cn1nc(CCC(=O)O)cc1C
2.63

###

Molecular target: human prostanoid DP1 receptor (Homo sapiens)
Construct: expressed in transfected cells
Sequence (Q13258 whole entry): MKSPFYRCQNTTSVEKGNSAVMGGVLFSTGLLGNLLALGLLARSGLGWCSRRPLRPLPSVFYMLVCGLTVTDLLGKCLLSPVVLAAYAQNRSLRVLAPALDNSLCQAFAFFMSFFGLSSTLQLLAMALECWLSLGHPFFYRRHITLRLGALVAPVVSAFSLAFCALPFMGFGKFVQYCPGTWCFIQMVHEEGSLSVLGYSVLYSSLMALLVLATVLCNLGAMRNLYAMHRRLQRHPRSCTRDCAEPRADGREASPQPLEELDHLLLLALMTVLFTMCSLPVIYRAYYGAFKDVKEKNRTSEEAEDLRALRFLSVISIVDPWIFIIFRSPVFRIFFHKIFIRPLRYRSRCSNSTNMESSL
Experiment: FLIPR Ca2+ signaling antagonist assay, DP1 receptor stable cell line
Format: cell-based
Settings: HEK-293 EBNA stable cell line; standard agonist BW 245C; NA = inactive (no antagonism or Kb 10,000 nM); PAg, Ag not defined
# Kb per entry
# output: numeric value plus its unit

compound	target-desc	Kb
Cc1cc(CCC(=O)O)nn1Cc1cc(Br)ccc1OCC1(C(F)(F)F)CCCC1	human prostanoid DP1 receptor (Homo sapiens)	400 nM
CCC(CC)COc1ccc(-c2ccccc2)cc1Cn1nc(CCC(=O)O)cc1C	human prostanoid DP1 receptor (Homo sapiens)	170 nM
C#Cc1ccc(OCC(CC)CC)c(Cn2nc(CCC(=O)O)cc2C)c1	human prostanoid DP1 receptor (Homo sapiens)	800 nM
Cc1cc(CCC(=O)NS(=O)(=O)C(F)(F)F)nn1Cc1cc(Br)ccc1OCC(C)C	human prostanoid DP1 receptor (Homo sapiens)	200 nM
CCC(CC)COc1ccc(C#N)cc1Cn1nc(CCC(=O)O)cc1C	human prostanoid DP1 receptor (Homo sapiens)	4400 nM

Write down Kb measured for item CCC(CC)COc1ccc(Cl)cc1Cn1nc(CC(C)C(=O)O)cc1C (racemic)
260 nM

Please report the measured Kb for Cc1cc(CC(C)(C)C(=O)O)nn1Cc1cc(Br)ccc1OCC1CCCC1
900 nM

# return recorded Kb for entry CCC(CC)COc1ccccc1Cn1nc(CC(C)C(=O)O)cc1C (racemic)
700 nM

Look up and state reported Kb for Cc1cc(CCC(=O)O)nn1Cc1cc(Cl)ccc1OC(CC(C)C)CC(C)C
160 nM

Please report Kb for the following compound: CCC(C)(CC)COc1ccc(Br)cc1Cn1nc(CCC(=O)O)cc1C
380 nM

Hello, please tell me recorded Kb for this one: Cc1cc(CCC(=O)O)nn1Cc1cc(Cl)ccc1OCc1ccc(Cl)cc1C(F)(F)F
790 nM

Give reported Kb value for Cc1cc(CC(C)(C)C(=O)O)nn1Cc1cc(Cl)ccc1OCC1CCCC1
560 nM

Please give the documented Kb of Cc1cc(CCC(=O)O)nn1Cc1cc(Br)ccc1OCC(C)C
200 nM

Give Kb for the following compound: Cc1cc(CCC(=O)NS(=O)(=O)C(F)(F)F)nn1Cc1cc(Br)ccc1OCC1CCCC1
400 nM

State, in one line, measured Kb of Cc1cc(CCC(=O)NS(=O)(=O)CC(F)(F)F)nn1Cc1cc(Cl)ccc1OCc1ccc(Cl)cc1
1330 nM

Please indicate Kb recorded for Cc1cc(CCC(=O)NS(=O)(=O)C(F)(F)F)nn1Cc1cc(Cl)ccc1OCc1ccc(Cl)cc1Cl
200 nM

Return Kb for the following compound: Cc1cc(CCC(=O)O)nn1Cc1cc(Cl)ccc1C#CC1CCCC1
700 nM

Answer with the recorded Kb for the compound listed here: CCc1ccc(OCC(CC)CC)c(Cn2nc(CCC(=O)O)cc2C)c1
260 nM
